# protocol-notes: Four Week Oral Toxicity Study in Rats
# Format: in vivo, rat
# condition: both sexes, CD [Crl:CD (SD)], rat, in vivo; 4 weeks oral gavage, highest dose administered
readout-name: NOAEL at 28 days (mg/kg/day)
Numbers only; they are read as mg/kg/day.

INPUT: Consider the compound shown here: CC(C)OC(=O)N[C@H]1Cc2c(n(Cc3ccccn3)c3ccc(C#N)cc23)C1 (single isomer, unassigned) [Example 1] What is its recorded NOAEL at 28 days?
OUTPUT: 1500

---

# protocol-notes: 52 Week Toxicity and Toxicokinetic Study in Dogs
# Format: in vivo, dog
# condition: male, beagle, dog, in vivo, po; dogs, 12 months, 3 mg/kg/day; read-out: Male group mean AUC0-24 hr near termination
readout-name: AUC(0-t) (ng·h/mL)
Please respond with the number in ng·h/mL and leave the unit unwritten.

INPUT: Reported AUC(0-t) for CC(C)OC(=O)N[C@H]1Cc2c(n(Cc3ccccn3)c3ccc(C#N)cc23)C1 (single isomer, unassigned) : what is it?
OUTPUT: 3620

---

# protocol-notes: 52 Week Toxicity and Toxicokinetic Study in Dogs
# Type: in vivo, dog
# condition: both sexes, beagle, dog, in vivo, oral; daily capsule, 52 weeks
readout-name: NOAEL at 52 weeks (mg/kg)
Use mg/kg as the unit, but write only the number.

INPUT: Which NOAEL at 52 weeks value is on record for CC(C)OC(=O)N[C@H]1Cc2c(n(Cc3ccccn3)c3ccc(C#N)cc23)C1 (single isomer, unassigned) ?
OUTPUT: 100

---

# protocol-notes: 52 Week Toxicity and Toxicokinetic Study in Dogs
# Assay type: in vivo, dog
# condition: male, beagle, dog, in vivo, po; males, 100 mg/kg, after 361 days of dosing
readout-name: Cmax (ng/mL)
// units = ng/mL; emit number, no label

INPUT: Cmax for CC(C)OC(=O)N[C@H]1Cc2c(n(Cc3ccccn3)c3ccc(C#N)cc23)C1 (single isomer, unassigned) ?
OUTPUT: 1500
